Molecular target: P450RAI-1 (Homo sapiens, UniProt O43174)
Sequence (O43174 whole entry): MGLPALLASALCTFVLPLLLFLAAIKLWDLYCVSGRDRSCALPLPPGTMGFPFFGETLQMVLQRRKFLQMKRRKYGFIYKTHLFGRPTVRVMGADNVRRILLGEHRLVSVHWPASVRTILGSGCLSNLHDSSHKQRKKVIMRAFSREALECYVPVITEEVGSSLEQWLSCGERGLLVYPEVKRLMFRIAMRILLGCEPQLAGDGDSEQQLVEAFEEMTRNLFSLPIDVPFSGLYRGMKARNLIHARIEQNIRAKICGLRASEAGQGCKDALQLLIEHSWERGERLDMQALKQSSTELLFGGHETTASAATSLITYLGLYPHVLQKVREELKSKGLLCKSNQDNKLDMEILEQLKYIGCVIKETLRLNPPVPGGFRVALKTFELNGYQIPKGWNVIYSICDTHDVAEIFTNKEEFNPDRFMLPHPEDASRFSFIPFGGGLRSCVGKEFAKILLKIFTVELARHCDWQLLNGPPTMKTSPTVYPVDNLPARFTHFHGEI
Assay: P450RAI-1 cell-based inhibitor assay
Conditions: P450RAI-1 stably transfected HeLa cells, [3H]-RA metabolism, 3 hours at 37° C.; read-out: P450RAI INHIBITION DATA INTACT HELA IC50
# key: entry, value: IC50
Your answer should be a plain number; it is taken to be in µM.

Below: 3 molecules and their reported IC50.
* CN(C1CC1)C1CCC(C)(C)c2cc(C#Cc3ccc(CC(=O)O)cc3)ccc21 (centres unmarked) | 0.4
* CN(C1CC1)C1CCC(C)(C)c2cc(C#Cc3ccc(CC(=O)O)c(F)c3)ccc21 (centres unmarked) | 1.1
* CC1(C)CN(C2CC2)Cc2ccc(C#Cc3ccc(CC(=O)O)cc3)cc21 | 3

Recorded IC50 for `Cc1cc(C#Cc2ccc(CC(=O)O)cc2)ccc1C1(OC(C)C)CC1` on P450RAI-1 (Homo sapiens, UniProt O43174) was 1.4

Recorded IC50 for `CC1(C)CC(C)(C)c2cc(C#Cc3ccc(CC(=O)O)cc3)cc(C3CC3)c2O1` on P450RAI-1 (Homo sapiens, UniProt O43174) was 0.033

Recorded IC50 for `CC1(C)CC(C)(C)c2cc(C#Cc3ccc(CC(=O)O)c(F)c3)cc(C3CC3)c2O1` on P450RAI-1 (Homo sapiens, UniProt O43174) was 0.025

Recorded IC50 for `CC1(C)CC(C)(C)c2cc(C#Cc3ccc(C(=O)O)cc3)cc(C3CC3)c2O1` on P450RAI-1 (Homo sapiens, UniProt O43174) was 0.13

Recorded IC50 for `CC1(C)CC2(CC2)Oc2c(C3CC3)cc(C(=O)Oc3ccc(CC(=O)O)cc3)cc21` on P450RAI-1 (Homo sapiens, UniProt O43174) was 0.18

----------
Molecular target: P450RAI-1 (Homo sapiens, UniProt O43174)
Assay: P450RAI-1 cell-based inhibitor assay
Details: P450RAI-1 stably transfected HeLa cells, [3H]-RA metabolism, 3 hours at 37° C.; read-out: P450RAI INHIBITION DATA INTACT HELA IC50
Decision: IC50 beneath 100 nM gives 1; IC50 meeting or exceeding 100 nM gives -1.

Illustrative cases are given below, each with its answer.
* CC1(C)CC2(CC2)Oc2c(C3CC3)cc(C#Cc3ccc(C(=O)O)cc3)cc21 [Compound 52] | 1
* CCCNC1(c2ccc(C#Cc3ccc(C(=O)O)cc3)cc2)CC1 [Compound 108] | -1
* CC1(C)CCC(n2ccnc2)c2ccc(C#Cc3ccc(C(=O)O)cc3)cc21 (centres unmarked) [Compound 139] | 1
* CC1(C)CC(C)(C)c2cc(C#Cc3ccc(C(=O)O)c(F)c3)ccc2O1 [Compound 30] | -1
* O=C(O)c1ccc(C#Cc2ccc(C3(N(Cc4ccccc4)Cc4ccccc4)CC3)cc2)cc1 [Compound 114] | -1

**Q:** Given CC1(C)CC2(CC2)Oc2c(C3CC3)cc(C#Cc3ccc(C(=O)O)c(F)c3)cc21 [Compound 54] , is recorded IC50 strictly lower than 100 nM?
**A:** 1

**Q:** Given COc1c(C(C)(C)C)cc(C#Cc2ccc(CC(=O)O)c(F)c2)cc1C(C)(C)C [Compound 145] , is recorded IC50 strictly lower than 100 nM?
**A:** -1

----------
System: skin of hairless mice
Assay: topical skin irritation test in hairless mice
Type: in vivo, mouse
Conditions: 300 nmole (nmol/25 g), topical in acetone, once daily days 1 through 5; mean ±SD, range 0-21
# key: entry, value: Cutaneous Toxicity Score (Blackjack Score)
# print the numeric value only

• CC1(C)CC2(CC2)Oc2c(C3CC3)cc(C#Cc3ccc(CC(=O)O)c(F)c3)cc21 [Compound 50] = 3
• CC1(C)CCC(n2ccnc2)c2ccc(C#Cc3ccc(CC(=O)O)cc3)cc21 (stereo not shown) [Compound 137] = 1
• CN(C1CC1)C1CCC(C)(C)c2cc(C#Cc3ccc(CC(=O)O)c(F)c3)ccc21 (stereo not shown) [Compound 18] = 5
• CC1(C)CN(C2CC2)Cc2ccc(C#Cc3ccc(CC(=O)O)c(F)c3)cc21 [Compound 22] = 0

Recorded Cutaneous Toxicity Score (Blackjack Score) (compound CC1(C)CC2(CC2)Oc2c(C3CC3)cc(C#Cc3ccc(CC(=O)O)cc3)cc21 [Compound 48] ): 3

Recorded Cutaneous Toxicity Score (Blackjack Score) (compound CN(C1CC1)C1CCC(C)(C)c2cc(C#Cc3ccc(CC(=O)O)cc3)ccc21 (stereo not shown) [Compound 8] ): 8

Recorded Cutaneous Toxicity Score (Blackjack Score) (compound CC1(C)CC2(CC2)Oc2c(C3CC3)cc(C(=O)Oc3ccc(CC(=O)O)cc3)cc21 [Compound 58] ): 0

----------
Tested on: skin of hairless mice
Test: topical skin irritation test in hairless mice
Type: in vivo, mouse
Conditions: 1000 nmole (nmol/25 g), topical in acetone, once daily days 1 through 5; mean ±SD, range 0-21
Values of Cutaneous Toxicity Score (Blackjack Score) greater than or equal to 8 map to Condition met; values below map to Condition not met.

* CN(C1CC1)C1CCC(C)(C)c2cc(C#Cc3ccc(CC(=O)O)cc3)ccc21 (centres unmarked) | Condition met

**Q:** Decide: Cutaneous Toxicity Score (Blackjack Score) of `CC1(C)CC2(CC2)Oc2c(C3CC3)cc(C(=O)Oc3ccc(CC(=O)O)cc3)cc21` >= 8?
**A:** Condition not met

**Q:** Decide: Cutaneous Toxicity Score (Blackjack Score) of `CC1(C)CC(C)(C)c2cc(C#Cc3ccc(CC(=O)O)c(F)c3)cc(C3CC3)c2O1` >= 8?
**A:** Condition met

**Q:** Decide: Cutaneous Toxicity Score (Blackjack Score) of `CC1(C)CCC(=O)c2ccc(C#Cc3ccc(CC(=O)O)c(F)c3)cc21` >= 8?
**A:** Condition not met

----------
Target: P450RAI-1 (Homo sapiens)
Experiment: P450RAI-1 cell-based inhibitor assay
Details: P450RAI-1 stably transfected HeLa cells, [3H]-RA metabolism, 3 hours at 37° C.; read-out: P450RAI INHIBITION DATA INTACT HELA IC50
EXPERIMENTAL_ENDPOINT: IC50 (nM)
Your answer should be a plain number; it is taken to be in nM.

Below: 6 molecules and their reported IC50.
- CC(C)OC1(c2ccc(C#Cc3ccc(CC(=O)O)cc3)cc2)CC1: 3500
- CC1(C)CC2(CC2)Oc2ccc(C#Cc3ccc(C(=O)O)c(F)c3)cc21: 270
- CC1(C)CCC(=O)c2ccc(C#Cc3ccc(CC(=O)O)cc3)cc21: 550
- CC1(C)CC(C)(C)c2cc(C(=O)Oc3ccc(CC(=O)O)cc3)ccc2O1: 2200
- CC1(C)CC2(CC2)Oc2ccc(C#Cc3ccc(CC(=O)O)cc3)cc21: 190
- CC1(C)CC(C)(C)c2cc(C#Cc3ccc(CC(=O)O)c(F)c3)ccc2O1: 180

Recorded IC50 (molecule `CC1(C)CN(C2CC2)Cc2ccc(C#Cc3ccc(CC(=O)O)c(F)c3)cc21` ): 1600

Recorded IC50 (molecule `CC1(C)CC2(CC2)Oc2c(C3CC3)cc(C(=O)Oc3cccc(CC(=O)O)c3)cc21` ): 1600

Recorded IC50 (molecule `COc1c(C(C)(C)C)cc(C#Cc2ccc(CC(=O)O)cc2)cc1C(C)(C)C` ): 800

----------
Molecular target: UniProt:P10276
Sequence (P10276 whole entry, species assumed): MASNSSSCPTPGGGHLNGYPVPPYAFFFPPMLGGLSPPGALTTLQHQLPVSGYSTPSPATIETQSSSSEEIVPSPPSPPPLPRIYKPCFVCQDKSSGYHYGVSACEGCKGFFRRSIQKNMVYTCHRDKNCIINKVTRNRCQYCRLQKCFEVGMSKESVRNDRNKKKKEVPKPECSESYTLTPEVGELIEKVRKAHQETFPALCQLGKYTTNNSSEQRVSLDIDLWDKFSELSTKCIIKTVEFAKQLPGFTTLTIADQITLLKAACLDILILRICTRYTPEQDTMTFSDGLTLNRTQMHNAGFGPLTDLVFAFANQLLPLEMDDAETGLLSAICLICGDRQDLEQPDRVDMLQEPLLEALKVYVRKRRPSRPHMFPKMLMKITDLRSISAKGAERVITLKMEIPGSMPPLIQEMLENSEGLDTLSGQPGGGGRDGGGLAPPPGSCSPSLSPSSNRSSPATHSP
EXPERIMENTAL_ENDPOINT: Kd (µM)
Your answer should be a plain number; it is taken to be in µM.

Below: 2 molecules and their reported Kd.
* CC1(C)CC(C)(C)c2cc(C#Cc3ccc(C(=O)O)cc3)cc(C3CC3)c2O1 [Compound 34] | 0.0615
* Cc1cc(C#Cc2ccc(C(=O)O)cc2)ccc1C1(OC(C)C)CC1 [Compound 85] | 1.86

Now turn to the next molecule.
Recorded Kd (molecule O=C(O)c1ccc(C#Cc2ccc(C3(OCc4ccccc4)CC3)cc2)cc1 [Compound 77] ): 2.21

----------
Biological target: P450RAI-1 (Homo sapiens)
Assay: P450RAI-1 cell-based inhibitor assay
Details: P450RAI-1 stably transfected HeLa cells, [3H]-RA metabolism, 3 hours at 37° C.; read-out: P450RAI INHIBITION DATA INTACT HELA IC50
EXPERIMENTAL_ENDPOINT: pIC50
Conceptually, pIC50 converts a concentration in mol/L into minus its log10.

Recorded pIC50 (molecule `CCc1cc(C#Cc2ccc(CC(=O)O)cc2)cc2c1OC(C)(C)CC2(C)C` ): 6.89

Recorded pIC50 (molecule `Cc1cc(C#Cc2ccc(CC(=O)O)cc2)ccc1C1(OCC(C)(C)C)CC1` ): 6.02

Recorded pIC50 (molecule `CCN(Cc1ccc(C#Cc2ccc(C(=O)O)cc2)cc1C(C)C)C1CC1` ): 5.30

Recorded pIC50 (molecule `CC1(C)CC2(CC2)Oc2ccc(C#Cc3ccc(C(=O)O)cc3)cc21` ): 5.77

Recorded pIC50 (molecule `CC1(C)CC2(CC2)Oc2c(C3CC3)cc(C#Cc3ccc(CC(=O)O)c(F)c3)cc21` ): 7.85

Recorded pIC50 (molecule `CCc1cc(C#Cc2ccc(CC(=O)O)cc2)ccc1C1(OC(C)C)CC1` ): 6.10
